# Tested system: mouse α9α10 nAChR (Mus musculus, UniProt B2RX82+G3X8Z7)
# Sequence (G3X8Z7 23-479): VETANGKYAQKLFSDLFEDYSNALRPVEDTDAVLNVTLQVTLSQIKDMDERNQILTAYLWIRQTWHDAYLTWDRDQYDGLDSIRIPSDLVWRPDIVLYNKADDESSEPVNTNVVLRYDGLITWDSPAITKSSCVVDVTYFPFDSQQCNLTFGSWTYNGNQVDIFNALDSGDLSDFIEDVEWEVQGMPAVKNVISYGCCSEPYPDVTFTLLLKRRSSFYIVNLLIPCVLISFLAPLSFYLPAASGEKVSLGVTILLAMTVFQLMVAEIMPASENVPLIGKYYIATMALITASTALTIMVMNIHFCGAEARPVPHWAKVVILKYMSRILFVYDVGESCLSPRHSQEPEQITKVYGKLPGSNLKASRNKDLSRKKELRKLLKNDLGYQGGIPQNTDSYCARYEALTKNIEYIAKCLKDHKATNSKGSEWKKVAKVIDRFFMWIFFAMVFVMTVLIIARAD
# Sequence (B2RX82 25-447): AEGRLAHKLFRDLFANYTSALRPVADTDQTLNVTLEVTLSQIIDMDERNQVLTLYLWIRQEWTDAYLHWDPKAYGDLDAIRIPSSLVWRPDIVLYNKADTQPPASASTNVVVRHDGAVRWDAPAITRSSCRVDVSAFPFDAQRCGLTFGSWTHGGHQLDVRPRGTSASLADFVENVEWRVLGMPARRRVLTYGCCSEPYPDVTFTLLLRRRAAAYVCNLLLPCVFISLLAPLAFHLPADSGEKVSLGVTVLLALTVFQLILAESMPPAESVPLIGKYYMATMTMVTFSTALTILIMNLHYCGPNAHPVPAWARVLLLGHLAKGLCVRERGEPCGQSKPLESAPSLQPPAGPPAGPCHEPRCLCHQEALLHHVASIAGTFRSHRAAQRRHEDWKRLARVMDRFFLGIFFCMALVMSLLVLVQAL
# Assay comment: Agonist activation of mouse α9α10 nAChRs in Xenopus oocytes (two-electrode voltage clamp)
# Experimental conditions: oocytes, holding potential −70 mV; 95% confidence interval in parentheses; ACh n = 5, choline n = 4
Measure: EC50 (µM)
Give bare numbers, in µM.

> print(dat)
   molecular.string  unit.info  reported.value
1    C[N+](C)(C)CCO         µM             601

Query compound follows.
// assay mouse α9α10 nAChR (Mus musculus, UniProt B2RX82+G3X8Z7), entry CC(=O)OCC[N+](C)(C)C , EC50 value = 30.1
